Entries and their measured protein stability index follow.
- assay details: protein stability index of a GFP-peptide fusion (yeast GPS) (PSI 1-4); higher = more stable; sorted into four equal gates, so the index is relative within each strain
- stated conditions: ubr1∆
measurement type: protein stability index

entry_sequence="FVSRIPIMFQDFDDSTA [IRR1]" measurement_type="protein stability index" numeric_readout=2
entry_sequence="MVAATKRRKTHIHKHVK [RET1]" measurement_type="protein stability index" numeric_readout=3.09
entry_sequence="VEVCLADLQGSEDHSFR [RPS1A]" measurement_type="protein stability index" numeric_readout=3.25
entry_sequence="MLQKKLVEVEDEKIEAI [SRB7]" measurement_type="protein stability index" numeric_readout=3.39
entry_sequence="NVLNQINQIFSPEEQRS [GAL11]" measurement_type="protein stability index" numeric_readout=2.81
entry_sequence="PSCNNMLLITSGDSGVY [RPC11]" measurement_type="protein stability index" numeric_readout=2.24
entry_sequence="SLINSHLKILASSNFPF [RPC82]" measurement_type="protein stability index" numeric_readout=2.02
entry_sequence="SISTYKDILNLASEVGD [ECM29]" measurement_type="protein stability index" numeric_readout=2.77
entry_sequence="NEPSQSLISTRNDSTVN [BRN1]" measurement_type="protein stability index" numeric_readout=2.82
entry_sequence="SGEEKGKKVTGFKDEVL [RPS1A]" measurement_type="protein stability index" numeric_readout=1.61
entry_sequence="ISAEDRADTDLAMNDDD [SNF2]" measurement_type="protein stability index" numeric_readout=3.32
entry_sequence="NANTIETAKMIENMTKE [FAS2]" measurement_type="protein stability index" numeric_readout=3.35
entry_sequence="QNDTPMFKLGNFESPVL [YLR018C/POM34]" measurement_type="protein stability index" numeric_readout=2.29
entry_sequence="EKIMENKYPELLGKDNE [AAR2]" measurement_type="protein stability index" numeric_readout=2.96
entry_sequence="EKPLTPLKYTKLIAAAE [SNF6]" measurement_type="protein stability index" numeric_readout=1.15
entry_sequence="GCEANIHSLVKQRLDLA [YIL149C/MLP2]" measurement_type="protein stability index" numeric_readout=3.19
entry_sequence="ISENTFPNGFKNFENGP [RPC34]" measurement_type="protein stability index" numeric_readout=2.57
entry_sequence="EHAKWGPAAAIEFEYDP [RPB3]" measurement_type="protein stability index" numeric_readout=3.09
entry_sequence="YKLVNKNKENNTFTWNH [RPN4]" measurement_type="protein stability index" numeric_readout=3.12
entry_sequence="VHELSKRVHTLLTLIVR [ISW2]" measurement_type="protein stability index" numeric_readout=1.37
entry_sequence="APEIPEDLYYLIKKAVS [RPS13]" measurement_type="protein stability index" numeric_readout=2.69
entry_sequence="NKIMTNQINSFWSLHSS [NUT1]" measurement_type="protein stability index" numeric_readout=3.31
entry_sequence="QSEDLSHAVEFFMSERS [YML103C/NUP188]" measurement_type="protein stability index" numeric_readout=3.18
entry_sequence="ATSFSRKKARTFDSSWN [FAS2]" measurement_type="protein stability index" numeric_readout=3.05
entry_sequence="TSKWLNSITSGGLKSCD [YDL116W/NUP84]" measurement_type="protein stability index" numeric_readout=2.7
entry_sequence="LDNLKLKELRIDNSPQA [GRR1]" measurement_type="protein stability index" numeric_readout=2.94

Values compiled from the supplement of paper PMC9732359.
